meta.source: ChEMBL document CHEMBL1124737

Organism: Homo sapiens
ASSAY_EXPLANATION: Inhibition of ADP by the compound in response of AGG
Assay type: functional, organism-based
MEASURED_ENDPOINT: IC50 (µM)
Field format: number, assumed µM, no unit text.

IC50 in this record for Cl.Oc1ccc(Cc2ncc[nH]2)cc1O : 263

* * *

Species on record: Homo sapiens
ASSAY_EXPLANATION: Effective concentration for primary wave aggregation was determined
Format: functional, organism-based
MEASURED_ENDPOINT: EC50 (µM)
Field format: number, assumed µM, no unit text.

EC50 in this record for Oc1ccc(C[C@@H]2CNC=N2)cc1O : 5.03

* * *

Species on record: Homo sapiens
ASSAY_EXPLANATION: Inhibition of AA+phentolamine by the compound in response of AGG
Type: functional, organism-based
MEASURED_ENDPOINT: pIC50
In simple prose, pIC50 is minus the logarithm base ten of a concentration in moles per litre.

pIC50 in this record for Cl.Oc1ccc(Cc2ncc[nH]2)cc1O : 3.84
